- System: HIV-1 III B virus
- ASSAY_PROCEDURE: Anti-HIV activity assay (P24 antigen in MT-4 cells)
- Type: cell-based
- CONDITION_LABEL: Human immunodeficiency virus 1, MT4, 96 h, MT-4 cells, HIV-1 III B 100TCID50, 96 h, P24 antigen; read-out: HIV IC50
OBSERVABLE: IC50 (µg/mL)
Quick note: give the figure in µg/mL, leave out the unit.

(Q) Please give measured IC50 of the following entry: COc1cc(CCc2ccccc2)c(C(=O)O)c(O)c1CC=C(C)C [Compound 37]
(A) 2.09

(Q) Output measured IC50 for this item: COC(=O)c1c(/C=C/c2ccccn2)cc(OC)c(CC=C(C)C)c1O [Compound 8t]
(A) 0.6

(Q) Give recorded IC50. COC(=O)c1c(/C=C/c2cc(OC)cc(OC)n2)cc(OC)c(CC=C(C)C)c1O [Compound 8x]
(A) 0.79

(Q) Supply recorded IC50 for COc1cc(/C=C/c2ccccc2)cc(OC(=O)C(=O)O)c1CC=C(C)C [Compound 31c] here.
(A) 0.29

(Q) Determine its reported IC50: COc1cc(/C=C/c2ccc(OC)c(O)c2)cc(OC)c1 [Compound 21d]
(A) 0.63

(Q) Name the recorded IC50 of the compound listed here: COc1cc(/C=C/c2ccc(O)cc2)c(C(=O)O)c(O)c1CC=C(C)C [Compound 1q]
(A) 1.86

(Q) Look up and report measured IC50 for this entry: COc1cc(/C=C/c2ccccc2)cc(O)c1CCC(C)C [Compound 10w]
(A) 0.75

(Q) Tell me IC50 reported for COc1cc(/C=C/c2ccccc2)c(C(=O)O)c(OC(=O)c2cnc[nH]2)c1CC=C(C)C [Compound 24q]
(A) 2.85

(Q) Assign IC50 to the following record: COc1cc(/C=C/C=C/c2ccccc2)cc(O)c1CC=C(C)C [Compound 10m]
(A) 2.33

(Q) Give me measured IC50, please, for this compound: COc1cc(/C=C/c2ccccc2)c(C(=O)O)c(OC(=O)CN(C)C)c1CC=C(C)C [Compound 24n]
(A) 3.12

(Q) Recall and state the measured IC50 for COC(=O)/C(=C\c1cc(OC)c(CC=C(C)C)c(O)c1C(=O)OC)c1ccccc1 [Compound 8s] .
(A) 0.52

(Q) Report IC50, nothing else, for this compound: COC(=O)c1c(/C=C/c2cc(OC)c(OC)c(OC)c2)cc(OC)c(CC=C(C)C)c1O [Compound 8u]
(A) 1.49

(Q) Please report the measured IC50 for COc1cc(/C=C/c2cc(O)c(CC=C(C)C)c(OC)c2)nc(OC)c1 [10d′]
(A) 1.3

(Q) Indicate its recorded IC50; the compound in question is COc1cc(/C=C(\C)c2cc(O)cc(O)c2)cc(OC)c1 [Compound 21g]
(A) 1.27

(Q) // Input: COc1cc(/C=C/c2ccncc2)c(C(=O)O)c(O)c1CC=C(C)C [Compound 1r] . Output its IC50 only.
(A) 6.53

(Q) For the compound COC(=O)c1c(/C=C/c2ccccc2)cc(OC)c(CC=C(C)C)c1OCN [Compound 26a] , give its reported IC50.
(A) 1.73

----------
So I've got a bunch of molecules here, and I need their IC50 values.
- System: Influenza A virus (hanfang359/95)
- ASSAY_PROCEDURE: Determination of anti-influenza virus activity (CPE in MDCK cells)
- Assay type: cell-based
- CONDITION_LABEL: Influenza A virus, MDCK, 36 h
Give just the number in µg/mL; leave the unit off.

(Q) Determine from records and report IC50 for COc1cc(/C=C/CCc2ccccc2)cc(O)c1CC=C(C)C [Compound 10l]
(A) 0.65

(Q) Quickly give me recorded IC50 for COc1cc(/C=C/c2ccccc2)c(C(=O)O)c(OC(=O)CN)c1CC=C(C)C [Compound 24b]
(A) 4.25

(Q) Look up IC50 of `COc1cc(/C=C/c2ccccc2)c(C(=O)Nc2ccc(Cl)cc2)c(O)c1CC=C(C)C` and report it.
(A) 0.47

(Q) Recall and state the measured IC50 for `COc1cc(/C=C/c2cc(O)ccn2)c(C(=O)O)c(O)c1CC=C(C)C` .
(A) 0.19

(Q) Supply reported IC50 belonging to this molecule: `COc1cc(/C=C/c2ccccc2)cc(O)c1CC=C(C)C`
(A) 0.27

(Q) Provide one value: measured IC50 of `COC(=O)c1c(/C=C/c2cc(OC)cc(OC)n2)cc(OC)c(CC=C(C)C)c1O`
(A) 0.65

(Q) Please give measured IC50 of the following entry: Oc1cc(O)cc(/C=C/c2cc(O)c(O)c(O)c2)c1 [Compound 21k]
(A) 0.54

(Q) Tell me its IC50 given COC(=O)c1c(/C=C/c2ccccc2)cc(OC)c(CC=C(C)C)c1OC(=O)CN [Compound 24a] as the entry.
(A) 2.31

(Q) Answer with reported IC50 of `C=CCc1c(OC)cc(/C=C/c2ccccc2)c(C(=O)OC)c1O`
(A) 0.15

(Q) Using the record for `COC(=O)c1c(/C=C/c2ccccc2)cc(OC)c(C/C=C(\C)CCC=C(C)C)c1O` , state its measured IC50.
(A) 0.82

(Q) For the molecule COc1cc(/C=C/c2ccccc2)c(C(=O)O)c(OCC2CNCCN2)c1CC=C(C)C (centres unmarked) [Compound 26e] , report IC50.
(A) 2.31

(Q) Input `COC(=O)c1c(/C=C/c2ccccc2)cc(OC)c(CC=C(C)C)c1O` , output reported IC50.
(A) 0.69

(Q) Complete the entry with IC50 for COc1cc(/C=C/c2ccccc2)c(C(=O)O)c(OCN)c1CC=C(C)C [Compound 26b]
(A) 3.65

(Q) Provide measured IC50 value, entry: COc1cc(/C=C/c2ccccc2)cc(OC(=O)NN)c1CC=C(C)C [Compound 29c]
(A) 0.24

(Q) Provide only the value of recorded IC50 for COC(=O)c1c(/C=C/c2ccccc2)cc(OC)c(CC=C(C)C)c1OC(=N)N [Compound 27a]
(A) 1.32

(Q) Consider the molecule COC(=O)c1c(/C=C/c2ccccc2)cc(OC)c(CC=C(C)C)c1OC(C)=O [Compound 24g] . State its measured IC50.
(A) 0.25

(Q) Write down IC50 measured for item `COC(=O)/C(=C\c1cc(OC)c(CC=C(C)C)c(O)c1C(=O)OC)c1ccccc1`
(A) 0.24

(Q) Name the recorded IC50 of the molecule listed here: COc1cc(/C=C/c2cc(O)c(CC=C(C)C)c(OC)c2)nc(OC)c1 [10d′]
(A) 0.14

(Q) Identify measured IC50 corresponding to `COc1cc(/C=C/C=C/c2ccccc2)c(C(=O)O)c(O)c1CC=C(C)C`
(A) 6.17

(Q) Supply reported IC50 belonging to this molecule: Oc1cc(O)cc(/C=C/c2ccc(O)c(O)c2)c1 [Compound 21e]
(A) 2.38

(Q) Specify IC50 for `COC(=O)c1c(/C=C/CCc2ccccc2)cc(OC)c(CC=C(C)C)c1O` and stop.
(A) 5.75

(Q) Recall and state the measured IC50 for COc1cc(/C=C/c2ccccc2)c(C(=O)O)c(OC(=O)c2cccnc2)c1CC=C(C)C [Compound 24k] .
(A) 3.55

(Q) Give IC50 for the following molecule: COc1ccnc(/C=C/c2cc(O)c(CC=C(C)C)c(OC)c2)c1 [Compound 10z]
(A) 0.32

(Q) Provide IC50 value for the following molecule: `COc1cccc(/C=C/c2cc(OC)c(CC=C(C)C)c(O)c2C(=O)O)n1`
(A) 4.62

(Q) Kindly indicate its recorded IC50. Item: COc1cc(/C=C/c2ccccc2)cc(OC(=O)C(=O)O)c1CC=C(C)C [Compound 31c]
(A) 0.08

(Q) Identify measured IC50 corresponding to CCOC(=O)C1=C[C@@H](OC(CC)CC)[C@H](NC(C)=O)[C@@H](N)C1 [Oseltamivirphosphate, reference compound]
(A) 0.22

(Q) Return the recorded IC50 value; entry: COc1cc(/C=C/c2ccccc2)c(C(=O)O)c(OC(C)=O)c1CC=C(C)C [Compound 24h]
(A) 0.45

(Q) Name the recorded IC50 of the item COc1cc(/C=C/c2ccccc2)cc(OC(=O)C2CCCN2)c1CC=C(C)C (centres unmarked) [Compound 24f] in your answer.
(A) 0.13

----------
- System: Coxsackie virus B6
- ASSAY_PROCEDURE: Coxsackie virus activity assay (CPE in Vero cells)
- Format: cell-based
- CONDITION_LABEL: Vero, read-out: COX-B6 IC50, Vero cells, about 100TCID50, CPE, Reed-Muench
OBSERVABLE: IC50 (µg/mL)
// units = µg/mL; emit number, no label

(Q) Item COc1cc(/C=C/c2ccc(C)cc2)cc(O)c1CC=C(C)C [Compound 10g] : provide IC50
(A) 1.18

(Q) Look up IC50 of COC(=O)c1c(/C=C(\C)c2ccccc2)cc(OC)c(CC=C(C)C)c1O [Compound 8i] and report it.
(A) 6.89

(Q) Give the value of IC50 reported for the following: COc1cc(/C=C/c2ccccc2)c(C(N)=O)c(O)c1CC=C(C)C [Compound 32]
(A) 0.54

(Q) Entry COc1cc(/C=C/c2ccccc2)cc(OC(=O)CN(C)C)c1CC=C(C)C [Compound 24o] needs its IC50 filled in; supply it.
(A) 1.21

(Q) State its IC50 for this molecule: COc1cc(/C=C/c2ccccc2)c(C(=O)OCC(O)CO)c(O)c1CC=C(C)C (stereo not drawn) [Compound 9e]
(A) 0.21

(Q) Tell me its IC50 given COC(=O)c1c(/C=C/c2ccncc2)cc(OC)c(CC=C(C)C)c1O [Compound 8r] as the entry.
(A) 6.43

(Q) Please list IC50 recorded for the molecule COc1cc(/C=C/c2ccccc2)c(C(=O)NC(=N)N)c(O)c1CC=C(C)C [Compound 23b]
(A) 0.24

(Q) Output IC50 of COc1cc(/C=C/c2ccc(C)cc2)c(C(=O)O)c(O)c1CC=C(C)C [Compound 1g]
(A) 4.25

(Q) Identify measured IC50 associated with COC(=O)c1c(/C=C/c2ccccc2)cc(OC)c(CC=C(C)C)c1O [Compound 8]
(A) 3.56

(Q) For the molecule COc1cc(/C=C/c2ccccc2C)c(C(=O)O)c(O)c1CC=C(C)C [Compound 1e] , give its measured IC50 value.
(A) 3.26

(Q) # return recorded IC50 for input COc1ccnc(/C=C/c2cc(O)c(CC=C(C)C)c(OC)c2)c1 [Compound 10z]
(A) 0.84

(Q) Identify measured IC50 corresponding to COc1cc(/C=C/c2ccccc2)c(C(=O)O)c(OC(C)=O)c1CC=C(C)C [Compound 24h]
(A) 1.21

(Q) Consider the molecule COc1cc(/C=C/c2ccccc2)c(C(=O)O)c(O)c1C/C=C(\C)CCC=C(C)C [Compound 1o] and give its recorded IC50.
(A) 1.36

(Q) Supply reported IC50 belonging to this molecule: COc1cc(/C=C/C=C/c2ccccc2)cc(O)c1CC=C(C)C [Compound 10m]
(A) 6.12

(Q) # return recorded IC50 for input COC(=O)/C(=C\c1cc(OC)c(CC=C(C)C)c(O)c1C(=O)OC)c1ccccc1 [Compound 8s]
(A) 3.52

(Q) Supply IC50 value. Item: COc1cc(/C=C/c2ccccc2)c(C(=O)Nc2ccccc2)c(O)c1CC=C(C)C [Compound 9g]
(A) 1.59

(Q) Provide only the value of recorded IC50 for COC(=O)c1c(/C=C/c2ccccc2)cc(OC)c(CC=C(C)C)c1OC [Compound 14]
(A) 1.6

Origin of measurements: patent US9359298B2
